This listing pairs compounds with measured IC50.
- System: PC-3 cells
- Assay: Antiproliferative activity, Alamar Blue assay, PC-3 cells
- Format: cell-based, human
- Experimental Context: Homo sapiens, PC-3, PC3 cells, Alamar Blue; read-out: PC3 antiproliferative activity pIC50 (converted)
Express it in nM; write the number only.

Examples with answers:
Cc1cc2ccc(C(C)(C#N)Cc3cccc(Oc4ccc(F)cc4)c3)cc2[nH]c1=O (centres unmarked) [Compound 192]: 1580
CCc1cc2ccc(C(C)(C#N)Cc3cc(OC)nc(OC)c3)cc2[nH]c1=O (centres unmarked) [Compound 350]: 1580
Cc1cc2ccc([C@](C)(C#N)C3CCc4ccccc43)cc2[nH]c1=O (single isomer, unassigned) [Compound 386]: 200
CCc1cc2ccc(C(C)(C#N)Cc3cccc4[nH]ccc34)cc2[nH]c1=O (centres unmarked) [Compound 379]: 1260
CCOc1cc(OCC)nc(CC(C)(C#N)c2ccc3cc(CC)c(=O)[nH]c3c2)n1 (centres unmarked) [Compound 309]: 2000

With PC-3 cells as the test system, CCc1cc2ccc(C(C)(C#N)Cc3cc(C(C)C)ccc3OC)cc2[nH]c1=O (centres unmarked) [Compound 288] showed IC50 of 2000

With PC-3 cells as the test system, CCc1cc2ccc([C@](C)(C#N)Cc3cccc(N(C)C)c3)cc2[nH]c1=O (single isomer, unassigned) [Compound 259] showed IC50 of 10000

With PC-3 cells as the test system, CCc1cc2ccc(C(C)(C#N)Cc3cccc(I)n3)cc2[nH]c1=O (centres unmarked) [Compound 214] showed IC50 of 631
